measured on: recombinant murine ANT1 (mANT1; adenine nucleotide translocase 1) (Mus musculus)
Construct: gene Slc25a4
assay overview: inhibition of fatty-acid-activated proton conductance, planar lipid bilayer with reconstituted ANT1
Type: biochemical
assay metric: EC50 (µM)

1) CO[C@H](C/C=C\C=C\CC/C=C/C[C@H](C)/C=C/C(=C\C(=O)O)CC(=O)O)/C(C)=C\C=C(/C)C(=O)O :: 32.3

---

measured on: recombinant murine ANT1 (mANT1; adenine nucleotide translocase 1) (Mus musculus, UniProt P48962)
Construct: gene Slc25a4
Sequence (P48962 2-298): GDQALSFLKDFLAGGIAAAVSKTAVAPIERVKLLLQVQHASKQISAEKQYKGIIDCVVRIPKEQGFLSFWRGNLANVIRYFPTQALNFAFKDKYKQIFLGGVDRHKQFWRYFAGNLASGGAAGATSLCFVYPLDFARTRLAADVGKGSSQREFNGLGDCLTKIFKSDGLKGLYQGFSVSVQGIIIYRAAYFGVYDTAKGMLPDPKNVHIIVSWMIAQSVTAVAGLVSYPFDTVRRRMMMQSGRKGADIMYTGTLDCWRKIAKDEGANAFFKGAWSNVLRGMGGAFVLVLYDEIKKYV
assay overview: inhibition of fatty-acid-activated proton conductance, planar lipid bilayer with reconstituted ANT1
Type: biochemical
settings: read-out: EC50
# Lookup of reported log10 of EC50 keyed by entry
assay metric: log10 of EC50 (log10 of the value in mM)

1. Nc1ncnc2c1ncn2[C@@H]1O[C@H](COP(=O)(O)OP(=O)(O)OP(=O)(O)O)[C@@H](O)[C@H]1O :: -0.60
2. Nc1nc2c(ncn2[C@@H]2O[C@H](COP(=O)(O)OP(=O)(O)O)[C@@H](O)[C@H]2O)c(=O)[nH]1 :: 0.73
3. Nc1ncnc2c1ncn2[C@@H]1O[C@H](COP(=O)(O)OP(=O)(O)O)[C@@H](O)[C@H]1O :: 0.12
4. Nc1nc2c(ncn2[C@@H]2O[C@H](COP(=O)(O)OP(=O)(O)OP(=O)(O)O)[C@@H](O)[C@H]2O)c(=O)[nH]1 :: 0.52
5. Nc1ncnc2c1ncn2[C@@H]1O[C@H](COP(=O)(O)O)[C@@H](O)[C@H]1O :: 0.42
